Hey, just so you know, these numbers are from ChEMBL document CHEMBL1138252.

Molecular target: Prostaglandin G/H synthase 2 (Homo sapiens) (UniProt P35354)
Sequence (whole entry): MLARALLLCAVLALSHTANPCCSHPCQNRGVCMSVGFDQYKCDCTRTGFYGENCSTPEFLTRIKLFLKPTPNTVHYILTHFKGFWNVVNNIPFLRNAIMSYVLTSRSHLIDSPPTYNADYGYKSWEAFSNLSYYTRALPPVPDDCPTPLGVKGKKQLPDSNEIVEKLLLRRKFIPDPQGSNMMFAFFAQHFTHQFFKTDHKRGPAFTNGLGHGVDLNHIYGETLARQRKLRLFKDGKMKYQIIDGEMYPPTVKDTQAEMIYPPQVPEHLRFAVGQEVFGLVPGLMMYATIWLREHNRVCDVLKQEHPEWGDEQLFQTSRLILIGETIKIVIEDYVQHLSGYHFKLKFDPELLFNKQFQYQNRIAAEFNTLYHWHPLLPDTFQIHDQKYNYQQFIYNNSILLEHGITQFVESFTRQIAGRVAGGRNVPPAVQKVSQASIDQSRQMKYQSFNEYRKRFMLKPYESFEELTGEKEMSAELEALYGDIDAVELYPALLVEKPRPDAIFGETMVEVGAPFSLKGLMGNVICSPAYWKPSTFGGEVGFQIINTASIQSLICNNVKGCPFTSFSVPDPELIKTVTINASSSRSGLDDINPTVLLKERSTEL
Settings: Spodoptera frugiperda; Sf9; at 10 µM
Description: Inhibition of human recombinant COX2 expressed in insect sf9 cells assessed as arachidonic acid-stimulated reactive oxygen species at 10 uM after 30 mins
Listed next: entries and their corresponding inhibition.
Form entry: value (%) — number only.

Exam item: For the record COC(=O)[C@@]1(C)CC[C@]2(C(=O)N(C(=O)NC3CCCCC3)C3CCCCC3)CC[C@]3(C)C(=CC[C@@H]4[C@@]5(C)C[C@H](O)[C@H](O[C@@H]6OC[C@@H](O[C@@H]7O[C@H](CO)[C@@H](O)[C@H](O)[C@H]7O)[C@H](O)[C@H]6O)[C@@](C)(CO)[C@@H]5CC[C@]43C)[C@@H]2C1 , what value of inhibition is listed for Prostaglandin G/H synthase 2 (Homo sapiens) (UniProt P35354)?
Marked response: 75

Next:
Exam item: Lookup: inhibition / Prostaglandin G/H synthase 2 (Homo sapiens) (UniProt P35354) / COC(=O)[C@@]1(C)CC[C@]2(C(=O)NCCc3ccccc3)CC[C@]3(C)C(=CC[C@@H]4[C@@]5(C)C[C@H](O)[C@H](O[C@@H]6OC[C@@H](O[C@@H]7O[C@H](CO)[C@@H](O)[C@H](O)[C@H]7O)[C@H](O)[C@H]6O)[C@@](C)(CO)[C@@H]5CC[C@]43C)[C@@H]2C1
Marked response: 94.7

Exam item: # get_value(readout= inhibition, system= Prostaglandin G/H synthase 2 (Homo sapiens) (UniProt P35354)) for COC(=O)[C@@]1(C)CC[C@]2(C(=O)O)CC[C@]3(C)C(=CC[C@@H]4[C@@]5(C)C[C@H](O)[C@H](O[C@@H]6OC[C@@H](O[C@@H]7O[C@H](CO)[C@@H](O)[C@H](O)[C@H]7O)[C@H](O)[C@H]6O)[C@@](C)(CO)[C@@H]5CC[C@]43C)[C@@H]2C1;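 also: recombinant human COX2 made in Sf9 insect cells, read-out is reactive oxygen species formed on arachidonic acid stimulation, measured after 30 min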
Marked response: 21.7

Exam item: Under Prostaglandin G/H synthase 2 (Homo sapiens) (UniProt P35354): inhibition value of COC(=O)[C@@]1(C)CC[C@]2(C(=O)NCc3ccccc3)CC[C@]3(C)C(=CC[C@@H]4[C@@]5(C)C[C@H](O)[C@H](O[C@@H]6OC[C@@H](O[C@@H]7O[C@H](CO)[C@@H](O)[C@H](O)[C@H]7O)[C@H](O)[C@H]6O)[C@@](C)(CO)[C@@H]5CC[C@]43C)[C@@H]2C1 ?
Marked response: 26.9

Exam item: Quick check: inhibition on Prostaglandin G/H synthase 2 (Homo sapiens) (UniProt P35354), item COC(=O)[C@@]1(C)CC[C@]2(C(=O)NCc3ccc(Cl)cc3)CC[C@]3(C)C(=CC[C@@H]4[C@@]5(C)C[C@H](O)[C@H](O[C@@H]6OC[C@@H](O[C@@H]7O[C@H](CO)[C@@H](O)[C@H](O)[C@H]7O)[C@H](O)[C@H]6O)[C@@](C)(CO)[C@@H]5CC[C@]43C)[C@@H]2C1 ?
Marked response: 126
